- experiment description: Half life in rat at 3 mg/kg, iv
- Type: ADME, organism-based
- Set-up: dose 3 mg/kg, route intravenous
- measurement conditions: in vivo
readout label: half-life
Give your result as the value with the unit written after it.

Below: 5 molecules and their reported half-life.
>  <molecule>
O=C(N[C@@H]1CCC[C@H](Nc2nc(-c3c[nH]c4ncc(F)cc34)ncc2F)C1)N1CCOCC1

>  <value reported>
1.7 h

$$$$
>  <molecule>
COCCC(=O)N1CCC[C@H](Nc2nc(-c3c[nH]c4ncc(Cl)cc34)ncc2F)C1

>  <value reported>
0.7 h

$$$$
>  <molecule>
O=C(O)[C@H]1C2CCC(CC2)[C@@H]1Nc1nc(-c2c[nH]c3ncc(F)cc23)ncc1F

>  <value reported>
3.5 h

$$$$
>  <molecule>
O=C(O)[C@H]1CCCC[C@@H]1Nc1nc(-c2c[nH]c3ncc(Cl)cc23)ncc1F (racemic)

>  <value reported>
1 h

$$$$
>  <molecule>
Cn1cncc1C(=O)N[C@@H]1CCC[C@H](Nc2nc(-c3c[nH]c4ncc(F)cc34)ncc2F)C1

>  <value reported>
2 h

$$$$

# ---- query molecule ----
Query block: Give its half-life value. Item: C[C@]1(C(=O)O)CCCC[C@@H]1Nc1nc(-c2c[nH]c3ncc(Cl)cc23)ncc1F (racemic)
Result block: 3.2 h

* * *

- experiment description: Antiviral activity against Influenza A virus A/Georgia/20/2006 infected in MDCK cells assessed as cell protection after 3 days by cytopathic effect assay
- Type: functional, cell-based, Influenza A virus (A/Georgia/20/2006(H1N1))
- measurement conditions: 72 h
readout label: pEC50
Kindly note that pEC50 refers to -log10 of the concentration in mol/L and answer with the value alone.

Query block: Give its pEC50 value. Item: O=C(O)[C@H]1C2CCC(CC2)[C@@H]1Nc1nc(-c2c[nH]c3ncc(F)cc23)ncc1F [PIMODIVIR]
Result block: 8.59

* * *

- experiment description: AUC in rat at 3 mg/kg, po
- Assay type: ADME, organism-based
- Design: dose 3 mg/kg, route oral
- measurement conditions: plasma
Parameter AUC: see the listing below.

>  <compound>
C[C@]1(C(=O)O)CCCC[C@@H]1Nc1nc(-c2c[nH]c3ncc(Cl)cc23)ncc1F (racemic)

>  <AUC>
2200 ng·h/mL

$$$$
>  <compound>
O=C(N[C@@H]1CCC[C@H](Nc2nc(-c3c[nH]c4ncc(F)cc34)ncc2F)C1)N1CCOCC1

>  <AUC>
1100 ng·h/mL

$$$$
>  <compound>
Cn1cncc1C(=O)N[C@@H]1CCC[C@H](Nc2nc(-c3c[nH]c4ncc(F)cc34)ncc2F)C1

>  <AUC>
3700 ng·h/mL

$$$$
>  <compound>
O=C(O)[C@H]1CCCC[C@@H]1Nc1nc(-c2c[nH]c3ncc(Cl)cc23)ncc1F (racemic)

>  <AUC>
200 ng·h/mL

$$$$
>  <compound>
O=C(O)[C@H]1C2CCC(CC2)[C@@H]1Nc1nc(-c2c[nH]c3ncc(Cl)cc23)ncc1F

>  <AUC>
300 ng·h/mL

$$$$

Query block: Give its AUC value. Item: O=C(O)[C@H]1C2CCC(CC2)[C@@H]1Nc1nc(-c2c[nH]c3ncc(F)cc23)ncc1F
Result block: 500 ng·h/mL

Every entry's value here was drawn from ChEMBL document CHEMBL3352362.
